Test: yeast display, Sf9 membrane polyspecificity reagent, FACS + sequencing; frameworks hold sequencing errors
measurementType: polyreactivity (PSR sort gate)

1. QVQLVESGGGLVQAGGSLRLSCAASGSIFYFNAMGWYRQAPGKERELVADISGSGGSTYYADSVKGRFTISRDNAKNTVYLQMNSLKPEDTAVYYCAARLYLHSWWYYAYDYWGQGTQVTVSS	high polyreactivity
2. QVQLVESGGGLVQARGSLRLSCAASGFTFGYNAMGWYRKAPGTERELVAVITQSGGRTYYADSVKGRFTISRDNANNSVYLQMNSLKPEDTAVYYCAARYRLAPYYYWGQGTQVTVSS	high polyreactivity
3. QVQLVESGGGLVQAGGSLRLSCAASGSTFRRNAMGWYRQAPGKERELLAAISRRGGSTYYADSVKGRFTISRDNAKNTVYLQMNSLKPEDTAVYYCASAVTTYSQGQGVYSWGQGTQVTVSS	high polyreactivity
4. QVQLVESGGGLVQAGGSLRLSCAASGRIFYSYAMGWNRQAPGKESQLVARSTRGSSTYYADSVKGRLTISRDNAKKTFYVQMNSMKPEDTAVYYCAQSRYTALTNHWSHDYWGPGTQVTVSS	low polyreactivity
5. QDQHVESGGGLVQAGGSLRLSCAASGITSKNYAMGWSRQAPGKERELVAVISGRGGSTYYADSVKGRFTITRDNAKNTVYLQMNCLKPEDTAVYYCAAYGNQRRGAYPYKYDYWGQGTQVTVSS	high polyreactivity
6. QVQLVESGGGLVQAGGSLRLSCAASGSTFSSYGMGWYRQAPGKERELVAAITSSGGSTYYADSVKGRFTISRDNAKNTVYLQMNSLKPEDTAVYYCAASDVIFWLYYYWGQGTQVTVSS	low polyreactivity
7. QVQLVESGGGLVQAGGSLRLSCAASGFIFWWYAMGWYRQAPGKERELVAGITGSGGTTYYADSVKGRFTISRDNAKNTVYLQMNSLKPEDTAVYYCAARSRSRPKYDYWGQGTQVTVSS	high polyreactivity
8. QVQLVESGGGLVQAGGSLRLSCAASGSIYARNAMGWYRQAPGKERELVAAIRYSGGSTYYADSVKGRFTISRDNAKNTVYLQMNSLKPEDTAVYYCAARWGVFGYYYWGQVTQVTVSS	high polyreactivity
9. QVQLVESGGGLVQAGGSLRLSCAASGFTFDPYAMGWYRQAPGKERELVAAISWIGTNTYYADSVKGRFTISRDNAKNTVYLLMNSLKPEDTAVYYCAADGPTIAVGSYDYWGQGTQVTVSS	low polyreactivity
10. QVQLVESGGGLVQAGGSLRLSCAASGRTFWRNAMGWYRQAPGKERELVAAISRGASTNYADSVKGRYTISRDNAKNTVYLQMNSLKPEDTAFYYCAARYYYRYNYWGQGTQVTVSS	high polyreactivity
11. QVQLVESGGGLVQAGGSLRLSCAASGRTFRYYAMGWYRQAPGKERELVAAISSGGNTYYADSVKGRFTISRDNAKNTVYLQMNSLKPEDTAVYYCAAKVHYSAHRFGYWGQGTQVTVSS	high polyreactivity
12. QVQLVESGGGLVQAGGSLRLSCAASGSIFVIYTMGWYRQAPGKERELVAVITWSTGNTYYADSVKGRFTISRDNAKNTVYLQMNSLKPEDTAVYYCAARTTSRWRSGAYYYWGQGTQVTVSS	high polyreactivity
13. QVQLVESGGGLVQAGGSLRLSCAASGSTFLSNAMGWYRQAPGKERELVASINWIGGSTRYADSVKGRFTISRDNAKNTVYLQMNSLKPEDTAVYYCAVELWWKWPFYYWGQGTQVTVSS	high polyreactivity
14. QVQLVESGGGLVQAGGSLRLSCAASGRISGVNAMGWSRQAPGKERELVATISGSGGRTYYADSVKGRFTISRDNAKNTVYLQMNSLNPEDTGGYYCNSMVERGGYFSRRFDFWGQGSQVTVSS	low polyreactivity
15. QVQLVESGGGLVQAGGSLRIICAASGRTFRGYAMGWYRQAPGKERELVAAITSGGSTNYADSVKGRFTISRDNAKNTVYLQMHSLKPEDTAVYYCNRDTSKYGLWRYIYDYWGQGTQVTVSS	low polyreactivity
16. QVQLVESGGGLVQAGGSLRLSCAASGSIFIYYAMGWYRQAPGKERELVAAISSSGGSTYYADSVKGRFTISRDNAKNTVYLQTNSLKPEDTAVYYCATVPYRYYDDDYWGQGTQVTVSS	high polyreactivity
17. QVQLVESGGGLVQAGGSLRLSCAASGSTFEPNGMGWYRQAPGKETELVAVITSGRTNYADSVKGSFTISRDNAKNTVYLQMNSLKPEDTAVYYCNAEGNGIYDYWGQGTQVTVSS	low polyreactivity
18. QVQLVESGGGLVQAGGSLRLSCAASGGTFPQYAKGWYRQAPGKEREFVADITTRGGTTYYADSVKGRFTISRDNAKNTVYLQMNSLKPEENAVYYCAADNPADWWGLDYWGQGTQVTVSS	low polyreactivity
19. QVQLVESGGGLVQAGGSLRLSCAASVFTFPPYAMGWYRQAPGKERELVAAISSAGSTKYADSVKGRFTISRDNAKNTVYLQMNSLKPEDTAVYYCAARWARSYDYWGQGTQVTVSS	low polyreactivity
20. QVQLVDSGGGLVQAGGSLRLSCAASGRTFSLYAMGWYRQAPGKERELVATISQSGGSTYYADSVKGRFTISRDNAKNTVYLQMNSQKPEDTAVYNCAAGGIYLDYFGQGTQVTVSS	low polyreactivity
21. QFQLVESGGGLVQAGGSLRLSCAASGYTFGNYAMGWYRPAPGNVRVLVAGISWSGGSTYYADSVKGRFTISRDNAKNTVYLQMNSLKPEDTAVYYCATRVQGYHNGWYAYLGQGTQVTVSS	high polyreactivity

Recorded values, source the nanobody polyreactivity screen of Harvey et al. (2022).
